- MEASUREMENT PROTOCOL: NCI Yeast Anticancer Drug Screen. Data for the bub3 strain (AID 167)
- APPLIED CONDITIONS: S. cerevisiae bub3 mutant strain, at 50.0 µM, stronger effect = higher value
- Procedure: Growth inhibition of yeast strains with defined genetic alterations is measured as a screen for potential anti-cancer activity. Selected strains with alterations in DNA damage repair or cell cycle control were exposed to compounds and growth inhibition was measured relative to vehicle treated controls. The strain used in this assay is bub3
Compounds without any hit were thinned out: in the full panel of roughly 79,000, 15% have a hit.
Please use Condition met whenever growth inhibition is not below 10%, and Condition not met whenever it is.

>  <MOLECULE>
c1ccc(-c2nnc(-c3ccccc3)c3nonc23)cc1

>  <CATEGORY>
Condition met

$$$$
>  <MOLECULE>
CCC(Nc1ncnc2nc[nH]c12)C(=O)O (stereo unspecified)

>  <CATEGORY>
Condition not met

$$$$
>  <MOLECULE>
CCCC(C)NC(=O)c1ccc(Cl)c(Cl)c1 (stereo unspecified)

>  <CATEGORY>
Condition not met

$$$$
>  <MOLECULE>
CN(C)c1ccc(/C=C(/NC(=O)c2ccccc2)C(N)=O)cc1

>  <CATEGORY>
Condition not met

$$$$
>  <MOLECULE>
O=C(/C=C/C(=O)c1ccc(O)cc1)Oc1ccccc1

>  <CATEGORY>
Condition met

$$$$

Below: the item to evaluate.
Query string: Reported growth inhibition reaches at least 10% for Cc1cn(C2CC(O)C(CO)O2)c(=O)[nH]c1=S (stereo unspecified) ?
Result string: Condition met

Cited source: PubChem BioAssay (NCI)
